tested on: BALB/C mice; experiment: In vivo expression, whole-body luminescence (IVIS); conditions: cirRNA (SEQ ID NO: 1) LNPs, BALB/C mice
result-type: In vivo Expression (Whole Body)
Number, no unit, nothing else.

Some compounds with known In vivo Expression (Whole Body) results, for comparison:
CCCCCCCCC(CCCCCCCC)OC(=O)CCCCCCCN(CCCCCCCCOC(=O)C(CCCCCC)CCCCCCCC)CCCOC(=O)NCCN1CCN(C)CC1 (stereo not drawn)
7.61E+06
CCCCCCCCCCC(CCCCCCCC)COC(=O)CCCCCN(CCCCCC(=O)OCC(CCCCCCCC)CCCCCCCCCC)CCOC(=O)NCCN1CCCCC1 (stereo not drawn)
4.92E+08
CCCCCCCCCCCOC(=O)CCCCCN(CCCCCCCC(=O)OC(CCCCCCCC)CCCCCCCC)CCOC(=O)NCCN(C)C
1.62E+07
CCCCC/C=C\C/C=C\CCCCCCCCN(CCCCCCCC(=O)OC(CCCCCCCC)CCCCCCCC)CCOC(=O)NCc1ncc[nH]1
6.13E+08
CCCCCCCCCCCOC(=O)CCCCCN(CCCCCCCC(=O)OC(CCCCCCCC)CCCCCCCC)CCOC(=O)NCCN1CCN(C)CC1
4.44E+05

Turning now to a further record.
Consider the compound CCCCCCCCCCC(CCCCCCCC)COC(=O)CCCCCN(CCCCCC(=O)OCC(CCCCCCCC)CCCCCCCCCC)CCCOC(=O)NCCN1CCC1 (stereo not drawn) and give its measured In vivo Expression (Whole Body). 1.10E+06
